Biological target: MERTK (UniProt Q12866)
Sequence (Q12866 whole entry, looked up): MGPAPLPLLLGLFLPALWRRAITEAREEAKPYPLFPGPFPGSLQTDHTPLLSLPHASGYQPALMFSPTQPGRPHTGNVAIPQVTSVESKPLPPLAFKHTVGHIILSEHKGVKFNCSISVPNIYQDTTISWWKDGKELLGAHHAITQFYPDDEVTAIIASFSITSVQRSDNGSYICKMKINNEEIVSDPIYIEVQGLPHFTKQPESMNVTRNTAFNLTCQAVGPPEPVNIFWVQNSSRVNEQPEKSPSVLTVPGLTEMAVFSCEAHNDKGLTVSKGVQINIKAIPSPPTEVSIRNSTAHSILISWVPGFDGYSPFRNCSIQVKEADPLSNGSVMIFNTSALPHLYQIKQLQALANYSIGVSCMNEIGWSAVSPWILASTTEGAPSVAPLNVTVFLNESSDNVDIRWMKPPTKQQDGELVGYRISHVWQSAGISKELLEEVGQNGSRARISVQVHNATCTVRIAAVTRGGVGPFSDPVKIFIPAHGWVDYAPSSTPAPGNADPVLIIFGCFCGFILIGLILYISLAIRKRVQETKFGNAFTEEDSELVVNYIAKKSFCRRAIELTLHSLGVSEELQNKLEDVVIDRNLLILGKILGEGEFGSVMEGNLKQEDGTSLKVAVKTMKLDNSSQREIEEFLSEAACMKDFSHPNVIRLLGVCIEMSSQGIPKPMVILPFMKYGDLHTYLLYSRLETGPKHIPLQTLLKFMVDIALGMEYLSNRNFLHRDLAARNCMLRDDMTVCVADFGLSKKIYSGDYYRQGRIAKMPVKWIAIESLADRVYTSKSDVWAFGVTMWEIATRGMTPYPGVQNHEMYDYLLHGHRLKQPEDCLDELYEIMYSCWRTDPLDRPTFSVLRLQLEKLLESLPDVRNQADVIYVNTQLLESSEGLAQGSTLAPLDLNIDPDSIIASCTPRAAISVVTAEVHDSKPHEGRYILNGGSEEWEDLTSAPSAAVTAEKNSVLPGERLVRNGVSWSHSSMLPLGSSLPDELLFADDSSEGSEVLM
Experiment: phosphorylation enrichment, bacterial display (enrichment ratio); higher = better substrate or ligand; peptides without Tyr show the background;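 further: 11-residue human phosphosite peptides and single-mutation variants displayed on the E. coli surface, counted by deep sequencing, each peptide's frequency after selection divided by its frequency in the unselected input library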;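 further: frequency after pTyr selection over input frequency; kinase dosed for 20-30% of maximal phosphorylation in three min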
The threshold is inclusive: phosphorylation enrichment of exactly 0.5 counts as satisfied; values below receive not satisfied.

{"Residues": "DVLPEYKLQAP [KCNH2_Y388]", "Tested System": "MERTK (UniProt Q12866)", "Assigned Label": "not satisfied"}
{"Residues": "FYVVRYCWLRR [MPZ_Y181]", "Tested System": "MERTK (UniProt Q12866)", "Assigned Label": "satisfied"}
{"Residues": "GRFCGYKSKHG [EPHA3_Y570]", "Tested System": "MERTK (UniProt Q12866)", "Assigned Label": "not satisfied"}
{"Residues": "AHAGEYGAVAL [HBA1_Y25_E28V]", "Tested System": "MERTK (UniProt Q12866)", "Assigned Label": "not satisfied"}
{"Residues": "DPYHVYIKNHV [KCNE3_Y95_R99H]", "Tested System": "MERTK (UniProt Q12866)", "Assigned Label": "not satisfied"}
{"Residues": "TRSFDYMEGGD [FGF7_Y58_YF]", "Tested System": "MERTK (UniProt Q12866)", "Assigned Label": "satisfied"}
{"Residues": "ARDVIYIIIPA [FRKtide_2014]", "Tested System": "MERTK (UniProt Q12866)", "Assigned Label": "satisfied"}
{"Residues": "KYLENYYDLKK [MMP3_Y41]", "Tested System": "MERTK (UniProt Q12866)", "Assigned Label": "satisfied"}
{"Residues": "TSSAGYRAAEG [COL6A3_Y543]", "Tested System": "MERTK (UniProt Q12866)", "Assigned Label": "not satisfied"}
{"Residues": "FYDANYDGKEY [MAPRE2_Y162]", "Tested System": "MERTK (UniProt Q12866)", "Assigned Label": "satisfied"}
{"Residues": "PIFLFYLMDLS [ITGB2_Y131_D128Y_YF]", "Tested System": "MERTK (UniProt Q12866)", "Assigned Label": "satisfied"}
{"Residues": "SSFSGYIMMPN [LEF1_Y114_YF]", "Tested System": "MERTK (UniProt Q12866)", "Assigned Label": "satisfied"}
{"Residues": "IHETTYKSIMK [ACTA1_Y281_N282K]", "Tested System": "MERTK (UniProt Q12866)", "Assigned Label": "not satisfied"}
{"Residues": "QDDTVYMGKVI [DCTN1_Y1244_T1249I]", "Tested System": "MERTK (UniProt Q12866)", "Assigned Label": "satisfied"}
{"Residues": "LTELGYSFVTT [ACTA1_Y200_R198L]", "Tested System": "MERTK (UniProt Q12866)", "Assigned Label": "satisfied"}
{"Residues": "VTQEQYELHCE [CBL_Y368_Y371H]", "Tested System": "MERTK (UniProt Q12866)", "Assigned Label": "not satisfied"}
{"Residues": "AIDVGYRLIDC [AKR1B1_Y40_H42L]", "Tested System": "MERTK (UniProt Q12866)", "Assigned Label": "not satisfied"}
{"Residues": "YTFNSYYMHWV [IGHV1-46_Y51_T49N]", "Tested System": "MERTK (UniProt Q12866)", "Assigned Label": "satisfied"}
{"Residues": "ALWYIYLHTRS [ENG_Y614_S615L]", "Tested System": "MERTK (UniProt Q12866)", "Assigned Label": "not satisfied"}
{"Residues": "FADIAYIYRHG [PAH_Y166_N167I]", "Tested System": "MERTK (UniProt Q12866)", "Assigned Label": "not satisfied"}
{"Residues": "PSVVAYPKRSQ [MARK3_Y432]", "Tested System": "MERTK (UniProt Q12866)", "Assigned Label": "not satisfied"}
{"Residues": "MSYDRYMAICH [OR2A5_Y123]", "Tested System": "MERTK (UniProt Q12866)", "Assigned Label": "not satisfied"}
{"Residues": "KVWGIYDCQQP [CYP3A7_Y75]", "Tested System": "MERTK (UniProt Q12866)", "Assigned Label": "satisfied"}
{"Residues": "SLDLSYYPTSS [EMD_Y181]", "Tested System": "MERTK (UniProt Q12866)", "Assigned Label": "satisfied"}
{"Residues": "KHMADYPDCKY [SOX11_Y113_Y116C]", "Tested System": "MERTK (UniProt Q12866)", "Assigned Label": "not satisfied"}
{"Residues": "SLKEFYGEDAK [ALDH3A1_Y272]", "Tested System": "MERTK (UniProt Q12866)", "Assigned Label": "not satisfied"}
{"Residues": "IIGNGYFFRVF [MYBPC3_Y1135_YF]", "Tested System": "MERTK (UniProt Q12866)", "Assigned Label": "not satisfied"}
{"Residues": "LFSGDYFRIQG [DDR2_Y740_YF]", "Tested System": "MERTK (UniProt Q12866)", "Assigned Label": "satisfied"}
{"Residues": "FAKTQYPDIYA [CRX_Y63_V66I]", "Tested System": "MERTK (UniProt Q12866)", "Assigned Label": "not satisfied"}
{"Residues": "FMFKVYSDPQP [FGFR1_Y280_C277Y_YF]", "Tested System": "MERTK (UniProt Q12866)", "Assigned Label": "not satisfied"}
{"Residues": "DFDNLYFWDQD [ERBB2_Y1221_A1216D_YF]", "Tested System": "MERTK (UniProt Q12866)", "Assigned Label": "satisfied"}
{"Residues": "LRSELYFLIAR [PHIP_Y16]", "Tested System": "MERTK (UniProt Q12866)", "Assigned Label": "satisfied"}
{"Residues": "GKGGSYSQAAC [HLA-B_Y344]", "Tested System": "MERTK (UniProt Q12866)", "Assigned Label": "not satisfied"}
{"Residues": "FETVKYINNER [ABCB7_Y345_F346I_YF]", "Tested System": "MERTK (UniProt Q12866)", "Assigned Label": "not satisfied"}
{"Residues": "EPFELYCEMGS [CBL_Y371_Q367P_YF]", "Tested System": "MERTK (UniProt Q12866)", "Assigned Label": "satisfied"}
{"Residues": "GDFLSYREFHS [ERBIN_Y1107_YF]", "Tested System": "MERTK (UniProt Q12866)", "Assigned Label": "not satisfied"}
{"Residues": "TDLAYYLVRKG [ASL_Y376]", "Tested System": "MERTK (UniProt Q12866)", "Assigned Label": "satisfied"}
{"Residues": "KTVQDYLKKFY [MMP8_Y36_E38K]", "Tested System": "MERTK (UniProt Q12866)", "Assigned Label": "not satisfied"}
{"Residues": "HLVSEYQQYQD [TUBB3_Y422_D417H]", "Tested System": "MERTK (UniProt Q12866)", "Assigned Label": "not satisfied"}
{"Residues": "VLPIDYFFPPQ [AR_Y552_YF]", "Tested System": "MERTK (UniProt Q12866)", "Assigned Label": "not satisfied"}
{"Residues": "SFPSTYRYERG [INPPL1_Y661_P659S]", "Tested System": "MERTK (UniProt Q12866)", "Assigned Label": "not satisfied"}
{"Residues": "KSPDSYQKILF [ATM_Y1415_L1420F]", "Tested System": "MERTK (UniProt Q12866)", "Assigned Label": "satisfied"}
{"Residues": "SVKVYYKKCWS [EPHA7_Y202]", "Tested System": "MERTK (UniProt Q12866)", "Assigned Label": "not satisfied"}
{"Residues": "FRASFYRRGDR [LTK_Y677_YF]", "Tested System": "MERTK (UniProt Q12866)", "Assigned Label": "satisfied"}
{"Residues": "EAGKVYLKAPM [CBFB_Y96]", "Tested System": "MERTK (UniProt Q12866)", "Assigned Label": "satisfied"}
{"Residues": "ITKNPYDPPGR", "Tested System": "MERTK (UniProt Q12866)", "Assigned Label": "not satisfied"}
{"Residues": "HCFNSYTFPRL [PAK7_Y316_S312C_YF]", "Tested System": "MERTK (UniProt Q12866)", "Assigned Label": "satisfied"}
{"Residues": "PVKTPYSLKRW [BMPR2_Y979_R974P]", "Tested System": "MERTK (UniProt Q12866)", "Assigned Label": "satisfied"}
{"Residues": "WQQQSYLDSGI [CTNNB1_Y30]", "Tested System": "MERTK (UniProt Q12866)", "Assigned Label": "not satisfied"}
{"Residues": "CTTIHQNFMCN [TP53_Y234_Y234Q_YF]", "Tested System": "MERTK (UniProt Q12866)", "Assigned Label": "not satisfied"}
{"Residues": "SLDLSYYHTSS [EMD_Y181_P183H]", "Tested System": "MERTK (UniProt Q12866)", "Assigned Label": "satisfied"}
{"Residues": "LADMNYVHCDL [EPHB2_Y742_R745C]", "Tested System": "MERTK (UniProt Q12866)", "Assigned Label": "not satisfied"}
{"Residues": "FSKRIYKGMVA [PCDH15_Y931]", "Tested System": "MERTK (UniProt Q12866)", "Assigned Label": "not satisfied"}
{"Residues": "PADCRYFAFPQ [GAMT_Y222_YF]", "Tested System": "MERTK (UniProt Q12866)", "Assigned Label": "satisfied"}
{"Residues": "KGIQLYDTPFE [SHB_Y297_YF]", "Tested System": "MERTK (UniProt Q12866)", "Assigned Label": "satisfied"}
